molecular target: DRB1*0701 (Homo sapiens, UniProt P01903+P01911, A100R/A102G/A103Q/D57E/D86V/E43K/F76Y/K127E/L162R/M171V/P40G/Q125H/Q99D/R33Q/R42Y/R54Q/S133A/S66F/T210M/V115G/Y107V/Y59L/Y89S); test: HLA class II peptide-binding assay (competitive ELISA); conditions: immunopurified HLA, reference peptide IC50 5 nM, ratio ≤20 high affinity, 20–200 moderate affinity
parameter: relative binding ratio (IC50 of the test peptide divided by IC50 of the reference peptide)
API doc: respond with a numeric literal and nothing else, no unit.

Below, 4 sequences whose answers are already recorded.
PGKYTADGGKHVAYII [pTL4, Tear lipocalin peptide p74–89]	65
PGKYTAYEGQRVVFIQ [pC4, Can f 1 peptide p73–88]	1
GTWYLKAMTVDREFPE [pTL1, Tear lipocalin peptide p15–30]	47
HYILYCEGELHGRQIR [pC6, Can f 1 peptide p95–110]	644

Could you now consider this next sequence?
Output measured relative binding ratio (IC50 of the test peptide divided by IC50 of the reference peptide) for this item: GKHVAYIIRSHVKDHY [pTL5, Tear lipocalin peptide p82–97]
447
